Can you tell me apparent KD of MS2 coat protein for the items I'm about to list?
- Tested on: MS2 coat protein
- Method: apparent KD of MS2 coat protein; designed switch direction (-1 OFF switch, 1 ON switch): -1; higher = weaker reporter binding
- Measurement Conditions: input ligand: none
Value and unit, in that order.

So, AGUCGUAGACAGGAUAUGCGGCUAAUAAAUAAUGCAGAAGGGUCUACUUGAGGAUCACCCAAGUGGGCGGUCUG [jl-ex6-4.23 ViennaUCT mod] (Eterna round: R97, puzzle: Exclusion 6) ? Its apparent KD of MS2 coat protein was 17.3 nM

So, CGCUGUUGAGGAUAUGGGCGUGGGUACAUGAGGAUCACCCAUGUGUUGUCGCGCGUGGGUCUAGAAGGCGGCGGUG [-29.1, -27.2 kcal, 16% A] (Eterna round: R97, puzzle: Exclusion 5) ? Its apparent KD of MS2 coat protein was 13.8 nM

So, AUCAGCUCGUCAGGAUAUACAUGAGGAUCACCCAUGUGAUCAAUAGCAGCUUCGGCUGCAUUAAUGUAGAAGGGACGAGCUGAU [ENG2/5-B3] (Eterna round: R96, puzzle: Exclusion NG 2) ? Its apparent KD of MS2 coat protein was 407 nM

So, CUUUCGUCUGUGGGUGGUGACAUGAGGAUCACCCAUGUUUUGCUCGUCUUGUCCCGGGCCCGGCGCCCGGGCCCGGG [-38.7, -62.5, A 8%] (Eterna round: R97, puzzle: Sensor, turn-off variant 1) ? Its apparent KD of MS2 coat protein was 1340 nM

So, UAUUAGCAAGUAAGAUCCCACAUGAGGAUCACCCAUGUGCUCGUCAUAUCAGGUACGGAGCGGAAACUCACGGUACG [Sensor-V1 #87] (Eterna round: R97, puzzle: Sensor, turn-off variant 1) ? Its apparent KD of MS2 coat protein was 351 nM

So, ACAUGAGGAUCACCCAUGUUAUGUUGGGUACUAAAUUAUUCGUAGGAUAUCGAAGCUAGUUUGUGCGAGAAGGACGCAUUUUUU [JR_ExcNG3_Sub058] (Eterna round: R96, puzzle: Exclusion NG 3) ? Its apparent KD of MS2 coat protein was 201 nM

So, UUUAUAAUUUCAAUCUUCGCCAACAAACUUACGCUGGCCACAUGAGGAUCACCCAUGUUUUUUGUUCGUUUUAUUCU [Veorenxere] (Eterna round: R96, puzzle: Sensor v3, turn-off variant 2) ? Its apparent KD of MS2 coat protein was 27.1 nM

So, GUCUCAGCUGAGGAUAUAAACUCCCUUGAGGGUUUAGAAGGCAGUACAUGAGGAUCACCCAUGUGGUUCGUUUG [eternacac ex6r4 sub27] (Eterna round: R97, puzzle: Exclusion 6) ? Its apparent KD of MS2 coat protein was 139 nM

So, UGUGAGCUAGGAUAUGCUUUGGGCUCGCUUUCCUUCGAUAAACUUGAGGAUCACCCAAGUAGAAGGAGCUUGCA [Mod 31 - Jieux - Exclusion 2] (Eterna round: R97, puzzle: Exclusion 2) ? Its apparent KD of MS2 coat protein was 20.4 nM

So, UUUAUGCUAGGAUAUGCACCCUCGAACAUGAGGAUCACCCAUGUACAAUAAACGCAUGAAGCAGAAGGAGCUUCCA [EX5 A.20] (Eterna round: R97, puzzle: Exclusion 5) ? Its apparent KD of MS2 coat protein was 37.1 nM

So, GAAAAGGUAGAGGAUAUUUCAGAUCAAAGCUGCAAAGAAGGCUGCACAUGAGGAUCACCCAUGUGGUCUUAAAA [Mod of Quesina 8 - Jieux - Exclusion 6] (Eterna round: R97, puzzle: Exclusion 6) ? Its apparent KD of MS2 coat protein was 20.9 nM

So, AGUAACUAUCACGAAAGUGAUAGUUACAGCAAGUGAUAAACAUGAGGAUCACCCAUGUCCUCAUUUGCUCGUCUUAU [Sensor 3 - 12] (Eterna round: R96, puzzle: Sensor v3, turn-off variant 2) ? Its apparent KD of MS2 coat protein was 17.2 nM

So, CACCGUUACAGAGGAUAUGUUACAUGAGGAUCACCCAUGUAAUAAAUGAGAAUUUCGAAUGUAAUACAGAAGGCUGGAAUCGGC [Ostracism 75 - Jieux - Exclusion NG 2] (Eterna round: R96, puzzle: Exclusion NG 2) ? Its apparent KD of MS2 coat protein was 21.3 nM
